# Test system: EKVX NSCLC
# Measurement description: NCI tumour cell line growth inhibition, 48 h
Measured metric: TGI (µM)
The response must be a number in µM with no trailing unit.

[in] If you can, please state the reported TGI value of "CCc1ccccc1-n1c2nc(=O)n(C)c(=O)c-2nc2ccccc21" .
[out] 24.6

[in] If you can, please state the reported TGI value of "c1ccc([C@@H]2N[C@@]3(CO[Si](c4ccccc4)(c4ccccc4)c4ccccc4)CC[C@H]4CN[C@@H]2[C@H]43)cc1" .
[out] 29.5

====

Assignment: determine reported GI50 for the given molecules.
# System: HCC-2998 colon
# Measurement description: NCI tumour cell line growth inhibition, 48 h

[in] Observed GI50 on HCC-2998 colon for "C[C@@H]1CC[C@H]2C(COC/C=C/COCC3=C(C(F)(F)F)O[C@@H]4O[C@@]5(C)CC[C@H]6[C@H](C)CC[C@@H]3[C@@]46OO5)=C(C(F)(F)F)O[C@@H]3O[C@@]4(C)CC[C@@H]1[C@]32OO4" , please.
[out] 472 nM

[in] Observed GI50 on HCC-2998 colon for "COc1cc(-c2nn(C(=O)NS(=O)(=O)c3ccc(C)cc3)cc2-c2ccncc2)ccc1Cl" , please.
[out] 11400 nM

[in] Observed GI50 on HCC-2998 colon for COc1ccc(NC(=O)c2sc3nc(C)c(C(O)c4ccc(OC)cc4)cc3c2N)cc1 (stereo not drawn) , please.
[out] 804 nM
